This listing pairs molecules with measured pIC50.
System: KB
Test: Cytotoxicity against KB cells by colorimetric method
Format: cell-based
Conditions: Homo sapiens
Would you please state pIC50, meaning minus log10 of the concentration in mol/L, as a bare number?

These solved cases illustrate the format of a correct answer.
>  <Molecule>
COC1=CC(=O)C2=C(CCc3ccccc3O2)C1=O [BAUHINOXEPIN J]

>  <Measured Number>
4.98

$$$$
>  <Molecule>
COC1=C(C)C(=O)C2=C(CCc3cc(O)ccc3O2)C1=O [BAUHINOXEPIN I]

>  <Measured Number>
4.41

$$$$
>  <Molecule>
COc1cc2c(c(O)c1C)Oc1cccc(O)c1CC2 [BAUHINOXEPIN C]

>  <Measured Number>
4.35

$$$$
>  <Molecule>
COC1=C(C)C(=O)C2=C(CCc3c(O)cccc3O2)C1=O [BAUHINOXEPIN H]

>  <Measured Number>
4.80

$$$$
>  <Molecule>
COc1c(O)c(C)c(OC)c2c1CCc1c(O)cccc1O2 [BAUHINOXEPIN F]

>  <Measured Number>
4.53

$$$$

Exam item: Item COc1cc(O)cc(CCc2ccccc2)c1 has what recorded pIC50?
Marked response: 4.29

Exam item: Can you share its pIC50? I mean this molecule: Cc1c2ccncc2c(C)c2c1[nH]c1ccccc12
Marked response: 5.28

Exam item: What does the data say about its pIC50? Entry: COc1c(C)c(O)cc2c1Oc1cccc(O)c1CC2 [BAUHINOXEPIN D]
Marked response: 4.38

====

# IC50 per record follows
Target: Prostaglandin G/H synthase 2 (Homo sapiens, UniProt P35354)
Sequence (P35354 whole entry): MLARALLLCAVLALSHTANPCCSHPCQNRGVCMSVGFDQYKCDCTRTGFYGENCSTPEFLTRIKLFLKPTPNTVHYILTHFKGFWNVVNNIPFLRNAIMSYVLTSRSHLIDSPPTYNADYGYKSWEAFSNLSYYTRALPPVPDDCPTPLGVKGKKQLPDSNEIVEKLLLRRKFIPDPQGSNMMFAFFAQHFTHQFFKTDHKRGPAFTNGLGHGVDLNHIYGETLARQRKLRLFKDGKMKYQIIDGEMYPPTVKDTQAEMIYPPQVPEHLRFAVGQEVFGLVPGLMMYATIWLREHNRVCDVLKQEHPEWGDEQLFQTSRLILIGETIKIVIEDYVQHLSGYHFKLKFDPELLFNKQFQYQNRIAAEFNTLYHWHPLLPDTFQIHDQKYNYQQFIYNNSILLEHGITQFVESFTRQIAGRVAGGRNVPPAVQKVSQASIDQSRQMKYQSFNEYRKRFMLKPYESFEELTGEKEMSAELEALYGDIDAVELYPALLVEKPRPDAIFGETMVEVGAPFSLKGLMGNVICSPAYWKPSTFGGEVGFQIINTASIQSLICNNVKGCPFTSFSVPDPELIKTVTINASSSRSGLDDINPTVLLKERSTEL

Please review the following examples before continuing.
>  <Molecule>
COc1cc(O)cc(CCc2ccccc2O)c1

>  <Tested Target>
Prostaglandin G/H synthase 2 (Homo sapiens, UniProt P35354)

>  <IC50>
> 40.9 µM

$$$$
>  <Molecule>
COC1=C(C)C(=O)C2=C(CCc3cc(O)ccc3O2)C1=O [BAUHINOXEPIN I]

>  <Tested Target>
Prostaglandin G/H synthase 2 (Homo sapiens, UniProt P35354)

>  <IC50>
10.1 µM

$$$$
>  <Molecule>
COC1=C(C)C(=O)C2=C(CCc3c(O)cccc3O2)C1=O [BAUHINOXEPIN H]

>  <Tested Target>
Prostaglandin G/H synthase 2 (Homo sapiens, UniProt P35354)

>  <IC50>
> 34.9 µM

$$$$
>  <Molecule>
COc1c(O)c(C)c(OC)c2c1CCc1c(O)cccc1O2 [BAUHINOXEPIN F]

>  <Tested Target>
Prostaglandin G/H synthase 2 (Homo sapiens, UniProt P35354)

>  <IC50>
6.9 µM

$$$$
>  <Molecule>
COc1c(C)c(OC)c2c(c1O)CCc1c(O)cccc1O2 [BAUHINOXEPIN E]

>  <Tested Target>
Prostaglandin G/H synthase 2 (Homo sapiens, UniProt P35354)

>  <IC50>
> 33.1 µM

$$$$

Exam item: So what does the record say about IC50 for Oc1cc(O)cc(CCc2ccccc2)c1 [DIHYDROPINOSYLVIN] ?
Marked response: > 46.7 µM

====

Test system: Candida albicans
Assay: Antifungal activity against Candida albicans by colorimetric method
Type: functional, organism-based
IC50 by entry:

Some compounds with recorded IC50:
>  <Compound>
COc1cc(CCc2ccccc2O)c(O)c(OC)c1

>  <Tested Target>
Candida albicans

>  <IC50>
> 182 µM

$$$$
>  <Compound>
C[C@@H]1[C@H](O)[C@@H](C)/C=C/C=C/C=C/C=C/C=C/C=C/C=C/[C@H](O[C@@H]2O[C@H](C)[C@@H](O)[C@H](N)[C@@H]2O)C[C@@H]2O[C@](O)(C[C@@H](O)C[C@@H](O)[C@H](O)CC[C@@H](O)C[C@@H](O)CC(=O)O[C@H]1C)C[C@H](O)[C@H]2C(=O)O [AMPHOTERICIN B]

>  <Tested Target>
Candida albicans

>  <IC50>
0.04 µM

$$$$

Okay, next one:
Exam item: Request the reported IC50 associated with COc1c(C)c(O)cc2c1Oc1cccc(O)c1CC2 [BAUHINOXEPIN D]
Marked response: > 184 µM

====

System: KB
Test: Cytotoxicity against KB cells by colorimetric method
Format: cell-based
Details: Homo sapiens
Assay Endpoint: IC50

Check out these entries, answers already filled in.
>  <Compound>
Cc1c(O)cc2c(c1O)C(=O)C[C@@H](c1ccccc1)O2

>  <IC50>
> 74 µM

$$$$
>  <Compound>
COc1cc(CCc2ccccc2O)cc(OC)c1

>  <IC50>
> 77.5 µM

$$$$
>  <Compound>
Oc1cc(O)cc(CCc2ccccc2)c1 [DIHYDROPINOSYLVIN]

>  <IC50>
> 93.4 µM

$$$$

Exam item: Returns the measured IC50 for the input compound. Input: COc1cc(CCc2ccccc2O)c(O)c(OC)c1
Marked response: > 72.9 µM

Exam item: Which IC50 reading was recorded for the compound COc1c(C)c(OC)c2c(c1O)CCc1c(O)cccc1O2 [BAUHINOXEPIN E] ?
Marked response: > 66.2 µM

Exam item: Give the measured IC50 of COc1cc(CCc2ccccc2O)cc(O)c1C [BAUHINOL E] .
Marked response: > 77.5 µM

Exam item: Given the compound COc1c(C)c(O)cc2c1Oc1ccccc1C(O)C2 (stereo not given) [BAUHINOXEPIN G] , what is its reported IC50?
Marked response: > 73.5 µM

Exam item: Requested read-out: IC50. Entry: COc1cc(O)cc(CCc2ccccc2O)c1 [BATATASIN IV]
Marked response: > 81.8 µM

Exam item: Bench note: what IC50 did COc1cc(OC)c(O)c([C@@H]2Cc3ccccc3O2)c1 [BAUHIBENZOFURIN A] show?
Marked response: > 73.5 µM

Exam item: Could you tell me which IC50 is on file for Cc1c(O)c(C)c2c(c1O)C(=O)C[C@@H](c1ccccc1)O2 [DEMETHOXYMATTEUCINOL] ?
Marked response: > 70.4 µM
